Ref: ChEMBL document CHEMBL1201861

- Test system: IST-SL2;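 also: growth inhibition of human IST-SL2 cells, read out by a cell viability assay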
- Procedure text: cells
- Type: functional, cell-based
- Condition details: Homo sapiens
- Description: SANGER: Inhibition of human IST-SL2 cell growth in a cell viability assay.
pIC50: −log10 of the molar value.
Measured endpoint: pIC50

{"Molecule": "Fc1cc(-c2cc[nH]/c(=N/c3ccc(-n4cnc(N5CCOCC5)n4)cc3)n2)cc(N2CCOCC2)c1", "Target system": "IST-SL2", "Experimental result": 6.34}
{"Molecule": "Cc1[nH]c(/C=C2\\C(=O)Nc3ccc(S(=O)(=O)Cc4c(Cl)cccc4Cl)cc32)c(C)c1C(=O)N1CCC[C@@H]1CN1CCCC1 [PHA-665752]", "Target system": "IST-SL2", "Experimental result": "< 5.70"}
{"Molecule": "CC(O)(CS(=O)(=O)c1ccc(F)cc1)C(=O)Nc1ccc(C#N)c(C(F)(F)F)c1 (stereo unspecified) [BICALUTAMIDE]", "Target system": "IST-SL2", "Experimental result": "< 5.99"}
{"Molecule": "C/C(O)=C(\\C#N)C(=O)Nc1cc(Br)ccc1Br", "Target system": "IST-SL2", "Experimental result": "< 4.80"}
{"Molecule": "CCNC(=O)c1noc(-c2cc(C(C)C)c(O)cc2O)c1-c1ccc(CN2CCOCC2)cc1 [LUMINESPIB]", "Target system": "IST-SL2", "Experimental result": 7.24}
{"Molecule": "Cc1n[nH]c2ccc(-c3cncc(OC[C@@H](N)Cc4c[nH]c5ccccc45)c3)cc12 [A-443654]", "Target system": "IST-SL2", "Experimental result": 6.71}
{"Molecule": "O=c1[nH]c2ccccc2n1C1CCN(Cc2ccc(-c3nc4cc5[nH]cnc5cc4nc3-c3ccccc3)cc2)CC1", "Target system": "IST-SL2", "Experimental result": "< 5.59"}
{"Molecule": "CC(C)=CC[C@@H](O)C1=CC(=O)c2c(O)ccc(O)c2C1=O [SHIKONIN]", "Target system": "IST-SL2", "Experimental result": 6.70}
{"Molecule": "COc1cc(C)c(Sc2cnc(NC(=O)c3ccc(CNC(C)C(C)(C)C)cc3)s2)cc1C(=O)N1CCN(C(C)=O)CC1 (stereo unspecified)", "Target system": "IST-SL2", "Experimental result": "< 4.99"}
{"Molecule": "CCn1c(-c2nonc2N)nc2cnc(Oc3cccc(NC(=O)c4ccc(OCCN5CCOCC5)cc4)c3)cc21 [GSK-269962A]", "Target system": "IST-SL2", "Experimental result": "< 5.60"}
{"Molecule": "Cc1ccc(NC(=O)c2cccc(C(C)(C)C#N)c2)cc1Nc1ccc2ncn(C)c(=O)c2c1", "Target system": "IST-SL2", "Experimental result": "< 5.40"}
